assayed-target: T1, c-erbB-2 ECD with a Ser-Gly-His6 C-terminal fusion (UniProt P04626 23-652)
T1 construct: extracellular domain; Expressed from CHO cells, IMAC purified; coupled to a CM5 chip, coated on plates, or biotinylated with NHS-LC-biotin; also called c-erbB-2 extracellular domain; biotinylated c-erbB-2 ECD
assay-method-text: SPR BIAcore
recorded-metric: pKd
One number for each entry, as −log10 of the molar value.

INSERT INTO assay_data (binder, recorded_metric, number) VALUES
  ('C6ML3-9 (scFv, template (wt) of the VH CDR3 libraries; also called C6ML3-9 (wt); C6ML-9) scFv: QVQLLQSGAELKKPGESLKISCKGSGYSFTSYWIAWVRQMPGKGLEYMGLIYPGDSDTKYSPSFQGQVTISVDKSVSTAYLQWSSLKPSDSAVYFCARHDVGYCSSSNCAKWPEYFQHWGQGTLVTVSSGGGGSGGGGSGGGGSQSVLTQPPSVSAAPGQKVTISCSGSSSNIGNNYVSWYQQLPGTAPKLLIYGHTNRPAGVPDRFSGSKSGTSASLAISGFRSEDEADYYCASWDYTLSGWVFGGGTKLTVLG', 'pKd', 9.00);

Record pKd per entry; entries follow.
1. C6ML3-5 (scFv) scFv: QVQLLQSGAELKKPGESLKISCKGSGYSFTSYWIAWVRQMPGKGLEYMGLIYPGDSDTKYSPSFQGQVTISVDKSVSTAYLQWSSLKPSDSAVYFCARHDVGYCSSSNCAKWPEYFQHWGQGTLVTVSSGGGGSGGGGSGGGGSQSVLTQPPSVSAAPGQKVTISCSGSSSNIGNNYVSWYQQLPGTAPKLLIYGHTNRPAGVPDRFSGSKSGTSASLAISGFRSEDEADYYCAAWDYSLSGWVFGGGTKLTVLG
2. C6ML3-12 (scFv, also called CML-3-12) scFv: QVQLLQSGAELKKPGESLKISCKGSGYSFTSYWIAWVRQMPGKGLEYMGLIYPGDSDTKYSPSFQGQVTISVDKSVSTAYLQWSSLKPSDSAVYFCARHDVGYCSSSNCAKWPEYFQHWGQGTLVTVSSGGGGSGGGGSGGGGSQSVLTQPPSVSAAPGQKVTISCSGSSSNIGNNYVSWYQQLPGTAPKLLIYGHTNRPAGVPDRFSGSKSGTSASLAISGFRSEDEADYYCAAWDYSRSGWVFGGGTKLTVLG

1: 8.49; 2: 8.80
